The binders listed here are annotated with their pKd.
# Assay Target: T1, AAV9
# T1 construct: also called adeno-associated virus serotype 9
# Method Notes: SPR, AAV on CM5 chip;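 further: surface plasmon resonance with AAV amine-coupled to the chip as ligand, nanobodies injected as analyte over a concentration series, rate constants and affinity fitted from binding curves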
Scale explanation: pKd corresponds to minus log10 of a concentration expressed in moles per litre.

Observe how each entry below is paired with its result.
Binder	pKd
A4-007 (VHH) VHH: VQLQESGGGLVQAGGSLRLSCAASGRHFSINTMGWYRQAPGKQRELVAAVTRGGSTNYAGSVKGRFTISRDNAKNTVYLQMNSLRPEDTAVYYCHIDEVRQSSWTTSNIWGQGTQVTVSS	8.19
A4-017 (VHH) VHH: VQLQESGGGLVQPGGSLRLSCAASGSIFSINLMGWYRQAPGKQRELVATITRGGNTNYAGSVKGRFTISRDNAKNTVYLQMNSLRPEDTAVYYCHVDEVRQSSWTTSNLWGQGTQVTVSS	9.14
A4-020 (VHH) VHH: VQLQESGGGLVQAGGSLRLSCAASGSTFSINTMGWYRQAPGKQRELVATITRGGNTNYADSVKGRFTISRDNAKNTVYLQMNSLRPEDTAVYYCHVDEVRQSSWTTSNLWGQGTQVTVSS	7.13
A4-015 (VHH) VHH: VQLQESGGGLVQPGGSLRLSCAASGSIFSINLMGWYRQAAGKQRELVATITPGGNTNYAGSVKGRFTISRDNAKNTVYLQMNSLRPEDTAVYYCHVDEVRQSSWTTSNLWGQGTQVTVSS	8.47

A4-013 (VHH) VHH: VQLQESGGGLVQPGGSLRLSCAASGSRFSINSMGWYRQAPGKQRELVATVTRGGNTNYADSVKGRFTISRDNAKNTVYLQMNSLRPEDTAVYYCHVDEVRESSWTTSNLWGQGTQVTVSS yielded pKd of 6.32

Measured pKd of A4-012 (VHH) VHH: VQLQESGGGAVQAGGSLRLSCAASGSIFSINSMGWYRQAPGKQRELVATVTRGGNTNYAGSVKGRFTISRDNAKNTVYLQMNSLRPEDTAVYYCHVDEVRESSWTTSNLWGQGTQVTVSS : 6.17

pKd reported for this binder A4-049 (VHH) VHH: VQLQESGGGLVQPGGSLRLSCAASGSMFSINTMGWYRQAPGKQRELVAAVTRGGNTNYAGSVKGRFTISRDNAKNTVYLQMNSLRPEDTAVYYCHVDEVRQSSWTTSNLWGQGTQVTVSS : 7.03

Documented pKd of A4-008 (VHH) VHH: VQLQESGGGLVQAGGSLRLSCAASGRAFSINTMGWYRQAPPKQRELVATVTRGGSTNYAGSVKGRFTISRDNAKNTIYLQMNSLRPEDTAVYYCHVDEVRQSSWTTSNIWGQGTQVTVSS : 7.84

Record A4-025 (VHH) VHH: VQLQESGGGLVQPGGSLRLSCAASGSNFRINTMGWYRQAPGKQRELVATVTRGGSTNYADSVKGRFTISRDNPKDTVYLQMNSLRPEDTAVYYCHVDEVRESSWTTSNLWGQGTQVTVSS . Reported pKd: 9.13

Measured pKd, A4-039 (VHH) VHH: VQLQESGGGLVQPGGSLRLSCAASGSGFSINTMGWYRQAPGKWRELVATVTRGGSTNYAGSVKGRFTISRDNAKNTVYLQMNSLRPEDTAVYYCHIDEVRQSSWTTSNLWGQGTQVTVSS : 6.44

Form field pKd, entry A4-022 (VHH) VHH: VQLQESGGGLVQPGGSLRLSCAASGSGFSINTMGWYRQAPGKQRELVATVTRDGSTNYADFVKGRFTISRDNAKNTVYLQMNSLRPEDTAVYYCHLDEVRESSWTTSNLWGQGTQVTVSS : 7.55

Lab book: pKd of A4-044 (VHH) VHH: VQLQESGGGLVQPGGSLRLSCAASGSSFSINTMGWYRQAPGKQRELVATVTRGGVTNYADSVKGRFTISRDNAKNTVYLQMNSLRPEDTAVYYCHVDEVRQSSWTTSNLWGQGTQVTVSS noted as 7.88

In plain terms, A4-027 (VHH) VHH: VQLQESGGGLVQPGGSLRLSCAASGSNFSINTMGWYRQAPGKQRELVAALTRGGSTNYADSVKGRFTISRDNAKNTVYLQMNSLRPEDTAVYYCHVDEVRESSWTTSNLWGQGTQVTVSS has a documented pKd of 6.68

The reported value for A4-002 (VHH) VHH: VQLQESGGGLVQPGGSLRLSCAASGRSFSINTMGWYRQAPGKQRELVAAVTRGGSTNYAGSVKGRFTISRDNAKNTVYLQMNSLRPEDTAVYYCHIDEVRQSSWTTSNIWGQGTQVTVSS in terms of pKd is 6.63

Form: binder = A4-016 (VHH) VHH: VQLQESGGGLVQPGGSLRLSCAASGSIFSINLMGWYRQAPGKQRELVATITPGGNTNYAGSVKGRFTISRDNAKNTVYLQMNSLRPEDTAVYYCHVDEVRQSSWTTSNLWGQGTQVTVSS ; pKd = 6.88
